- TARGET OR SYSTEM: C-terminal-binding protein 1 (Homo sapiens)
- ASSAY INFO: qHTS for Inhibitors of the Phosphatase Activity of Eya2: Carboxyl-terminal binding protein (CtBP) Counterscreen for Cherry-picked Compounds; also: nearly all actives have a fitted effect of over 65% in size
- CONDITION PARAMETERS: purified protein-protein binding, AlphaScreen, 3 h; series mostly up to 46.1 µM
Screen size: about 1,300 compounds; about 420 (32%) were called active. About 32% were inconclusive and are not listed. Calls follow the shape of the dose curve; as a rule, active = well fitted inhibition curve with a large enough effect; inconclusive = small, poorly fitted or top-dose-only effect; inactive = no such curve, though single readings can be large or run the other way. The list shows a part of the results.
Use one of these outcomes when replying: 1 = active, -1 = inactive

COc1ccc(C(=O)N2CCOCC2)cc1S(=O)(=O)N1CCCc2ccccc21; -1

Consider the record given below.
[ask] // return assay outcome for `O=C(NC1CCCCC1)N1CCN(C2CCCCC2)CC1`
[reply] -1

----------
- TARGET OR SYSTEM: C-terminal-binding protein 1 (Homo sapiens) (UniProt Q13363)
- ASSAY INFO: qHTS for Inhibitors of the Phosphatase Activity of Eya2: Carboxyl-terminal binding protein (CtBP) Counterscreen for Cherry-picked Compounds; also: nearly all actives have a fitted effect of over 65% in size
- CONDITION PARAMETERS: purified protein-protein binding, AlphaScreen, 3 h; series mostly up to 46.1 µM
Among all 1,300 compounds or so, about 420 (32%) were called active. Another 32% or so got no clear call; they are omitted. The call rests on the fitted dose curve; in most records, active means well fitted inhibition curve with a large enough effect; inconclusive means small, poorly fitted or top-dose-only effect; inactive means no such curve, though single readings can be large or run the other way. The list shows a part of the results.
Use one of these outcomes when replying: active, inactive

// known answers, use as guide
O=C(CCS(=O)(=O)c1ccc(Br)cc1)N1CCCCCC1; inactive
Cc1cc(C(=O)CSc2nc(N)cc(N)n2)c(C)n1C1CC1; inactive
CN(C1=C(N2CCCCC2)C(=O)c2ccccc2C1=O)c1ccccc1; active
O=S(=O)(c1ccc(Cl)cc1)N1CCOCC1; inactive
O=C1C(NS(=O)(=O)c2ccc(Br)cc2)=C(N2CCCCC2)C(=O)c2ccccc21; active

Consider the record given below.
[ask] // return assay outcome for `CC1CCN(C2=C(NS(=O)(=O)c3ccc(Br)cc3)C(=O)c3ccccc3C2=O)CC1`
[reply] active

----------
- TARGET OR SYSTEM: C-terminal-binding protein 1 (Homo sapiens)
- ASSAY INFO: qHTS for Inhibitors of the Phosphatase Activity of Eya2: Carboxyl-terminal binding protein (CtBP) Counterscreen for Cherry-picked Compounds; also: nearly all actives have a fitted effect of over 65% in size; also: potency is read from the fitted curve at half-maximal effect
- CONDITION PARAMETERS: purified protein-protein binding, AlphaScreen, 3 h; series mostly up to 46.1 µM
The whole screen tested about 1,300 compounds, of which about 420 (32%) were called active. Another 32% or so got no clear call; they are omitted. The list shows a part of the results.
RECORDED METRIC: Potency

Check out these entries, answers already filled in.
O=c1c(CO)cc(CO)cc(CO)c1O; 9.53 µM (active)
O=C(CSc1ccc(-c2ccccn2)nn1)N1CCCCC1; 7.57 µM (active)
Cc1ccc(NC(=O)CSc2cccc3cccnc23)c(C)c1; 9.53 µM (active)
COc1ccc(S(=O)(=O)c2c(O)c3ccc(C(=O)Nc4ccccc4F)cc3[nH]c2=O)cc1; 0.757 µM (active)
O=C(Cn1ccc(=O)[nH]c1=O)Nc1nccs1; inactive
CC(=O)Oc1cccc2c1C(=O)C1CC=CC(OC(C)=O)C1C2=O (configuration not stated); 9.53 µM (active)
COc1ccc(Nc2nc(-c3c(C)nc4ncccn34)cs2)cc1; 2.69 µM (active)
COc1ccc(N(CC(=O)Nc2cccc(C(C)=O)c2)S(=O)(=O)c2ccc(NC(C)=O)cc2)cc1; inactive
CCOC(=O)c1cc(-c2ccc(N3CCOCC3)cc2)nn1-c1ccccc1C(=O)O; inactive
CC(=O)Oc1ccc(C(=O)Nc2cc(NC(=O)c3ccc(OC(C)=O)cc3)cc(C(=O)NC(C)(C)C)c2)cc1; 15.1 µM (active)

[ask] # return recorded Potency for input `Cc1ccc(NC(=O)CN2C(=O)S/C(=C\c3cc(Cl)c(OCC(=O)O)c(Cl)c3)C2=O)cc1`
[reply] 15.1 µM (active)

[ask] # return recorded Potency for input `N#Cc1c(N)n(-c2ccc(C(=O)O)cc2)c2nc3ccccc3nc12`
[reply] 12 µM (active)

[ask] # return recorded Potency for input `COc1ccc(CC(=O)Nc2cccc(Cl)c2C)cc1S(=O)(=O)N1CCOCC1`
[reply] inactive

[ask] # return recorded Potency for input `O=C(Nc1cc(S(=O)(=O)N2CCOCC2)ccc1Cl)c1cc(=O)c2ccccc2o1`
[reply] inactive

[ask] # return recorded Potency for input COc1ccc(S(=O)(=O)N2CCC3CC2c2cc(N4CCOCC4)ccc23)cc1 (configuration not stated)
[reply] inactive

[ask] # return recorded Potency for input `CCOc1ccccc1O[C@H](c1ccccc1)[C@H]1CNCCO1`
[reply] inactive

[ask] # return recorded Potency for input `CC(=O)c1ccc(OC(=O)/C=C/c2ccccc2)cc1`
[reply] 0.536 µM (active)

[ask] # return recorded Potency for input `Cc1sc2nc3ccc(N4CCCCC4)nn3c(=O)c2c1C`
[reply] 13.5 µM (active)

----------
- TARGET OR SYSTEM: C-terminal-binding protein 1 (Homo sapiens) (UniProt Q13363)
- ASSAY INFO: qHTS for Inhibitors of the Phosphatase Activity of Eya2: Carboxyl-terminal binding protein (CtBP) Counterscreen for Cherry-picked Compounds; also: nearly all actives have a fitted effect of over 65% in size
- CONDITION PARAMETERS: purified protein-protein binding, AlphaScreen, 3 h; series mostly up to 46.1 µM
In all, about 1,300 compounds went through this assay and about 420 (32%) were called active. About 32% were inconclusive and are not listed. The call rests on the fitted dose curve; in most records, active means well fitted inhibition curve with a large enough effect; inconclusive means small, poorly fitted or top-dose-only effect; inactive means no such curve, though single readings can be large or run the other way. This is one part of the list.
Use one of these outcomes when replying: 1 for active, -1 for inactive

// known answers, use as guide
O=C(/C=C/c1cccc([N+](=O)[O-])c1)Nc1cccc(NC(=O)c2cccs2)c1; -1
CC1CCC(=NNc2ccc(C(F)(F)F)cc2[N+](=O)[O-])CC1 (stereo unspecified); 1
COc1cc([C@H]2Oc3cc([C@H]4Oc5cc(O)cc(O)c5C(=O)[C@@H]4O)ccc3O[C@@H]2CO)ccc1O; -1

[ask] // return assay outcome for `c1ccc2cc(CSCc3nc4ccccc4[nH]3)ccc2c1`
[reply] -1

[ask] // return assay outcome for `NC(=O)c1nn2c(C(F)(F)F)cc(-c3ccccc3)nc2c1Br`
[reply] 1

[ask] // return assay outcome for CCC(C)C(CO)NC(=O)/C=C/[C@H]1O[C@@H](n2cnc3c(NC(=O)c4ccccc4)ncnc32)[C@H](O)[C@@H]1O (stereo partly specified)
[reply] -1

[ask] // return assay outcome for `Cc1cc(O)c(-c2cc(O)c(C)cc2O)cc1O`
[reply] -1

[ask] // return assay outcome for `O=C(/C=C/c1ccccc1)Oc1ccc(C(=S)N2CCOCC2)cc1`
[reply] 1

[ask] // return assay outcome for `COC(=O)c1ccc(OC(=O)c2cccnc2)cc1`
[reply] -1

[ask] // return assay outcome for `CCOC(=O)c1cnc2c(C#N)cnn2c1N`
[reply] 1

----------
- TARGET OR SYSTEM: C-terminal-binding protein 1 (Homo sapiens) (UniProt Q13363)
- ASSAY INFO: qHTS for Inhibitors of the Phosphatase Activity of Eya2: Carboxyl-terminal binding protein (CtBP) Counterscreen for Cherry-picked Compounds; also: nearly all actives have a fitted effect of over 65% in size
- CONDITION PARAMETERS: purified protein-protein binding, AlphaScreen, 3 h; series mostly up to 46.1 µM
The campaign covered roughly 1,300 compounds. About 420 (32%) were called active. About 32% were inconclusive and are not listed. Calls follow the shape of the dose curve; as a rule, active = well fitted inhibition curve with a large enough effect; inconclusive = small, poorly fitted or top-dose-only effect; inactive = no such curve, though single readings can be large or run the other way. Some of the results follow.
Use one of these outcomes when replying: yes (active), no (inactive)

// known answers, use as guide
N#C/C(=C\c1ccc(OC(=O)c2ccc(Cl)s2)cc1)c1nc2ccccc2[nH]1; no
CC(=O)Nc1ccc(S(=O)(=O)NC2=C(N3CCN(Cc4ccccc4)CC3)C(=O)c3ccccc3C2=O)cc1; yes
N#C/C(=C\c1ccc(OC(=O)c2ccc(Br)s2)cc1)c1nc2ccccc2[nH]1; no
N#C/C(=C/c1ccc(OC(=O)c2ccc(Br)s2)cc1)c1nc2ccccc2[nH]1; no
N#C/C(=C\c1ccc(OC(=O)c2ccccn2)cc1)C(N)=O; yes
O=C1c2cccc3cccc(c23)C(=O)N1CCCN1CCN(c2ccc(F)cc2)CC1; no

[ask] // return assay outcome for `O=C1C=C(Nc2ccccc2)C(=O)c2ccccc21`
[reply] yes

[ask] // return assay outcome for `CCOc1cc(C=NNC(=O)c2cccc(S(=O)(=O)N3CCCC3)c2)ccc1O`
[reply] yes

[ask] // return assay outcome for `O=S(=O)(c1ccc(Cl)s1)N1CCc2ccccc2C1`
[reply] no

[ask] // return assay outcome for `C[C@](N)(Cc1ccc(O)c(O)c1)C(=O)O`
[reply] no

----------
- TARGET OR SYSTEM: C-terminal-binding protein 1 (Homo sapiens)
- ASSAY INFO: qHTS for Inhibitors of the Phosphatase Activity of Eya2: Carboxyl-terminal binding protein (CtBP) Counterscreen for Cherry-picked Compounds; also: nearly all actives have a fitted effect of over 65% in size
- CONDITION PARAMETERS: purified protein-protein binding, AlphaScreen, 3 h; series mostly up to 46.1 µM
- Source text: The Eya protein family is an essential co-activator of the Six1 transcription factor. Six1 is a developmental gene that is abnormally re-expressed in a large percentage of breast cancers. This over-expression plays a causal role in the initiation and metastatic development of breast cancers. […] A 1536 well format, fluorescence based qHTS assay was developed and used to target the phosphatase activity of Eya2 (AID 488837). […]
About 420 (32%) of roughly 1,300 compounds were called active. Not shown: some 32% with an inconclusive outcome. Calls come from the whole dose curve; as a rule, active = well fitted inhibition curve with a large enough effect; inconclusive = small, poorly fitted or top-dose-only effect; inactive = no such curve, though single readings can be large or run the other way. The list shows a part of the results.
Use one of these outcomes when replying: 1 (yes) = active, 0 (no) = inactive

CC1CCCCC1NC(=O)COC(=O)c1c2c(nc3ccccc13)/C(=C\c1ccco1)CC2 (centres undefined); 0 (no)
COc1ccc(NC(=O)/C(C#N)=C/c2ccc(-c3ccc(Cl)c(C(=O)O)c3)o2)cc1; 1 (yes)
C[C@H](CCC(=O)NCC(=O)O)[C@H]1CC[C@H]2[C@@H]3[C@H](O)C[C@@H]4C[C@H](O)CC[C@]4(C)[C@H]3C[C@H](O)[C@]12C; 0 (no)
N#C/C(=C\c1ccc(-c2ccc(C(=O)O)cc2)o1)C(=O)Nc1ccc(F)cc1; 1 (yes)

[ask] // return assay outcome for COc1ccc(CC(CC(=O)O)C(=O)Nc2ccc(Cl)c(Cl)c2)cc1 (centres undefined)
[reply] 0 (no)

[ask] // return assay outcome for CC1CN(C(=O)c2cc(S(=O)(=O)N(C)c3ccc(F)cc3)ccc2Cl)CC(C)O1 (centres undefined)
[reply] 0 (no)

[ask] // return assay outcome for CCOC(=O)C1=C(COC(=O)CCOc2ccccc2)NC(=O)NC1C (centres undefined)
[reply] 0 (no)

[ask] // return assay outcome for `Cc1cc(NC(=O)c2cccs2)cc(-c2nc3ncccc3o2)c1O`
[reply] 0 (no)

[ask] // return assay outcome for `CCOc1cccc(CN2CCC(CCC(=O)NC3CC3)CC2)c1O`
[reply] 0 (no)
